Where these numbers come from: patent US10434083B2

- ASSAY_METHOD_TEXT: Pharmacokinetics of firocoxib in a single sow after IM injection (Example 1)
- Assay type: in vivo, swine
- TEST_CONTEXT: female, crossbred, pig, plasma, 1.5 mg/kg IM
READOUT: MRT (h)

CC1(C)OC(=O)C(OCC2CC2)=C1c1ccc(S(C)(=O)=O)cc1	42.9

* * *

- ASSAY_METHOD_TEXT: Firocoxib pharmacokinetics in sows following IM administration (Example 2)
- Format: in vivo, swine
- TEST_CONTEXT: female, Yorkshire×Landrace, pig, plasma; sows, 0.5 mg/kg IM, mean
- Procedure: Protocols involved intramuscular injection of Firocoxib to lactating sows at either 0.5, 1.0, 1.5 or 2 mg/kg, and analysis in sows and select piglets at 21 days post treatment. […] A sample size of 4 sows was selected to describe the pharmacokinetics of firocoxib. […] In cases where the calculated dose volume exceeded 20-mL, the remaining volume was administered via IM injection in the left lateral neck muscle. […]
READOUT: Tmax (h)

CC1(C)OC(=O)C(OCC2CC2)=C1c1ccc(S(C)(=O)=O)cc1	3.5
